SYSTEM NAME: T1, murine PRLR (Biacore antigen) (murine, UniProt Q08501 20-229, limits assumed)
T1 construct: also called muPRLR
T1 sequence (looked up): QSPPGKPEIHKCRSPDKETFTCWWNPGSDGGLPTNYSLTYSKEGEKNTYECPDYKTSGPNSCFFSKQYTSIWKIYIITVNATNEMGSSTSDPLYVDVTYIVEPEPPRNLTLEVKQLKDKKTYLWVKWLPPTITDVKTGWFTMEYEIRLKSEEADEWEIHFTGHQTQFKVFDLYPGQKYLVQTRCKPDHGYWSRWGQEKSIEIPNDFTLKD
ASSAY: SPR Biacore
Examples of binders with documented kon follow.
Respond with the bare value in M⁻¹ s⁻¹.

BINDER	kon, M⁻¹ s⁻¹
Ab7 (antibody, V domains shown, murine monoclonal, isotype G1; also called murine Ab7) VH: QVQLQQPGAELVMPGTSVKLSCKASGYTFTSYWIHWVKQRPGQGLEWIGEIDPSDSYTNYNQKFKGKATLTVDRSSSTAYMQLSSLTSEDSAVYYCGRSFFTNWFAYWGQGTLVTVSA VL: DVVMTQTPLSLPVSLGDQASISCRSSQSLVHSNGNTYLHWYLQKPGQSPKLLIYKVSNRFSGVPDRFSGSGSGTDFTLKINRVEAEDLGVYFCSQSTHVPFTFGSGTKLEIK	84000

Enquiry: Reported kon for Ab8 (antibody, V domains shown, murine monoclonal, isotype G2b; also called murine Ab8) VH: EVQLQQSGPELVKPGASVKISCKASGYTFTDYNIHWVKQSHGKSLEWIGYIYPNNDGTGYNQKFKSKATLTVDNSSSTAYMEVRSLTSEDSAVYYCARGDGNYVGDMDYWGQGTSVTVSS VL: DIQMTQSPASLSASVGETVTITCRASENIYSYLAWYQQKQGKPPQLLVYNAKTLAEGVPSRFSGGGSGTQFSLKINSLQPEDFGSYYCQHHYATPFTFGSGTKLEIK : what is it?
Return: 180000
